# Test system: Vero E6 infected with SARS-CoV-2
# assay.name: inhibition of SARS-CoV-2 cytopathic effect; higher = more antiviral protection, active = above 15
# protocol.conditions: 10000 nM; 48 h
Some compounds, each annotated with its measured inhibition of SARS-CoV-2 cytopathic effect.
Just the number please, in %, no unit attached.

Query block: Entry under review: `CN(C)CCNc1nc2cc(O)ccc2c2c1C(=O)c1ccccc1-2` . Reported inhibition of SARS-CoV-2 cytopathic effect?
Result block: -23.6

###

# System: Vero E6 infected with SARS-CoV-2
# assay.name: inhibition of SARS-CoV-2 cytopathic effect; higher = more antiviral protection, active = above 15
# protocol.conditions: 1 nM; 48 h
Some compounds, each annotated with its measured inhibition of SARS-CoV-2 cytopathic effect.
Just the number please, in %, no unit attached.

Check out these entries, answers already filled in.
[[record]]
compound = "CCc1ccc(/C=C2/SC(=S)NC2=O)cc1"
reading = -2.34

[[record]]
compound = "COc1cccc2c1C(=O)c1c(O)c3c(c(O)c1C2=O)C[C@@](O)(/C(CO)=N/NC(=O)CCCCCN1C(=O)C=CC1=O)C[C@@H]3O[C@H]1C[C@H](N)[C@H](O)[C@H](C)O1 [aldoxorubicin]"
reading = -2.6

[[record]]
compound = "OC[C@H]1O[C@H]([S-])[C@H](O)[C@@H](O)[C@@H]1O.[Au+] [aurothioglucose]"
reading = 0.67

[[record]]
compound = "COC(=O)[C@]12CCC(C)(C)C[C@H]1[C@H]1C(=O)C=C3[C@@]4(C)C=C(C#N)C(=O)C(C)(C)[C@@H]4CC[C@@]3(C)[C@]1(C)CC2 [Bardoxolone Methyl]"
reading = 2.85

[[record]]
compound = "NC(=S)N/N=C/c1ncccc1N [triapine]"
reading = 2.87

[[record]]
compound = "COc1ccc(C(=O)NCc2cccnc2)cc1C(=O)NCc1cccnc1 [picotamide]"
reading = -0.44


Next compound, please.
Query block: Entry under review: c1coc(-c2nnc3sc(C4CCCCC4)nn23)c1 [cardionogen-1] . Reported inhibition of SARS-CoV-2 cytopathic effect?
Result block: -0.83

###

# Tested on: Vero E6 infected with SARS-CoV-2
# assay.name: morphology score (similarity to uninfected cells); higher = more like uninfected cells
# protocol.conditions: 24 h
morphology score of -0.03 or higher: 1. Under -0.03: -1.

[[record]]
molecule = "COc1ccccc1N1CCN(CCCCNC(=O)c2ccc(-c3ccc(C(C)=O)cc3)cc2)CC1 (10 µM)"
discrete_label = -1

[[record]]
molecule = "Nc1ncnc2c1ncn2[C@@H]1O[C@@H]2COP(=O)(O)O[C@H]2[C@H]1O [cyclic-AMP] (10 µM)"
discrete_label = 1

[[record]]
molecule = "CCCc1c(OCCCCc2nnn[nH]2)ccc(C(C)=O)c1O [tomelukast] (10 µM)"
discrete_label = -1

[[record]]
molecule = "NC(CO)C(=O)NNCc1ccc(O)c(O)c1O (stereo unspecified) [benserazide] (10 µM)"
discrete_label = -1

[[record]]
molecule = "Cc1cnc(-c2ccccc2C(C)C)nc1NCc1ccc(-n2ccnn2)cc1 (10 µM)"
discrete_label = 1


Continue with the next molecule.
Query block: Given COC(=O)C[C@](O)(CCCC(C)(C)O)C(=O)O[C@@H]1C(OC)=C[C@]23CCCN2CCc2cc4c(cc2[C@H]13)OCO4 [homoharringtonine] (10 µM) , state whether its morphology score is at least -0.03.
Result block: 1

###

Some compounds, each annotated with its measured inhibition of SARS-CoV-2 cytopathic effect.
# Test system: Vero E6 infected with SARS-CoV-2
# assay.name: inhibition of SARS-CoV-2 cytopathic effect; higher = more antiviral protection, active = above 15
# protocol.conditions: 10000 nM; 48 h
Just the number please, in %, no unit attached.

Check out these entries, answers already filled in.
[[record]]
compound = "COc1cc(N2CCC(N3CCN(C)CC3)CC2)ccc1Nc1ncc(Cl)c(Nc2ccccc2S(=O)(=O)C(C)C)n1"
reading = -15.5

[[record]]
compound = "CN(C/C=C/C#CC(C)(C)C)Cc1cccc2ccccc12"
reading = 8.15

[[record]]
compound = "C=C1/C(=C\\C=C2/CCC[C@]3(C)[C@@H]([C@H](C)CCCC(C)C)CC[C@@H]23)C[C@@H](O)C[C@@H]1O"
reading = -5.24

[[record]]
compound = "CCOC(=O)c1c(C)n(C)c2ccc(O)cc12 [mecarbinate]"
reading = -2.61

[[record]]
compound = "FC(F)(F)c1ccc(/C=C/c2nc(COc3ccc(CCCCn4ccnn4)cc3)co2)cc1"
reading = 1.47


Query block: Entry under review: `O=C(N[C@H](Cc1ccccc1)C(=O)O)c1sc2cc(F)ccc2c1Cl` . Reported inhibition of SARS-CoV-2 cytopathic effect?
Result block: 3.31

Query block: CC(=O)N(CC(O)CN(C(C)=O)c1c(I)c(C(=O)NCC(O)CO)c(I)c(C(=O)NCC(O)CO)c1I)c1c(I)c(C(=O)NCC(O)CO)c(I)c(C(=O)NCC(O)CO)c1I (stereo not drawn) ?
Result block: -1.88

Query block: `CC(C)[C@H](C(=O)Nc1ccc(C(=O)NO)cc1)c1ccccc1` ?
Result block: 0.89

###

# Tested on: Vero E6 infected with SARS-CoV-2
# assay.name: SARS-CoV-2 infection rate relative to infected DMSO; higher = more infection, active = 60 or less
# protocol.conditions: 24 h
measured.attribute: SARS-CoV-2 infection rate (%)
Just the number please, in %, no unit attached.

[[record]]
compound = "N#CN1CCCC1 [pyrrolidine-1-carbonitrile] (10 µM)"
reading = 92

[[record]]
compound = "Cc1ccc(S(=O)(=O)N2CCC[C@H]2c2ccc(F)cc2)cc1 (10 µM)"
reading = 110

[[record]]
compound = "COCCCC/C(=N\\OCCN)c1ccc(C(F)(F)F)cc1 [fluvoxamine] (10 µM)"
reading = 90

[[record]]
compound = "CC[C@@]1(O)C(=O)OCc2c1cc1n(c2=O)Cc2cc3cc(O)ccc3nc2-1 [10-hydroxycamptothecin] (10 µM)"
reading = 103

[[record]]
compound = "CS(=O)(=O)c1ccc(-c2cn3ccccc3n2)cc1 [zolimidine] (10 µM)"
reading = 85


Query block: Entry under review: CNC(=O)c1c(I)c(NC(C)=O)c(I)c(C(=O)O)c1I [iothalamic-acid-d3] (10 µM) . Reported SARS-CoV-2 infection rate?
Result block: 104

Query block: CCCC[C@@H](NC(=O)[C@@H](Cc1cn(C(=O)OC)c2ccccc12)NC(=O)[C@H](CC(C)(C)C)NC(=O)N1[C@H](C)CCC[C@@H]1C)C(=O)O (10 µM) ?
Result block: 104

Query block: CC(C)(NS(=O)(=O)c1ccc(Oc2ccc(F)cc2)cc1)C(=O)NO (10 µM) ?
Result block: 99

Query block: CN(C)Cc1cccc(N=C(c2ccccc2)c2c(O)[nH]c3cc(C(=O)N(C)C)ccc23)c1 (10 µM) ?
Result block: 112

Query block: CON [methoxyamine] (10 µM) ?
Result block: 99

Query block: CCN(C)C(=O)Oc1cccc([C@H](C)N(C)C)c1 [rivastigmine] (10 µM) ?
Result block: 101

Query block: Cn1c(=O)c2c(ncn2CC(=O)O)n(C)c1=O [acefylline] (10 µM) ?
Result block: 100

Query block: Cc1c(C)c2c(c(C)c1OC(=O)CCC(=O)O)CC[C@@](C)(CCC[C@H](C)CCC[C@H](C)CCCC(C)C)O2 [D-alpha-tocopheryl-succinate] (10 µM) ?
Result block: 101

###

# Test system: Vero E6 infected with SARS-CoV-2
# assay.name: inhibition of SARS-CoV-2 cytopathic effect; higher = more antiviral protection, active = above 15
# protocol.conditions: 1 nM; 48 h
measured.attribute: inhibition of SARS-CoV-2 cytopathic effect (%)
Just the number please, in %, no unit attached.

Check out these entries, answers already filled in.
[[record]]
compound = "[NH-]c1c[n+](N2CCOCC2)no1 [linsidomine]"
reading = 0.45

[[record]]
compound = "CNC(=O)[C@H](Cc1c[nH]c2ccccc12)NC(=O)[C@@H](CC(=O)NO)CC(C)C [ilomastat]"
reading = 3.69

[[record]]
compound = "CN(C)CCOC(c1ccc(Cl)cc1)c1ccccn1 (centres undefined) [carbinoxamine]"
reading = 1.68

[[record]]
compound = "Nc1ccc(/N=N/c2ccccc2)c(N)n1 [phenazopyridine]"
reading = 1.34

[[record]]
compound = "CN(C)Cc1ccc(-c2nc3cccc4c3n2CCNC4=O)cc1"
reading = 0.51

[[record]]
compound = "O=C1CC[C@@](c2ccccc2)(C2CCN(Cc3ccc(I)cc3)CC2)C(=O)N1 [iododexetimide]"
reading = 1.14

[[record]]
compound = "CNC(=O)c1cc(COc2nnc(Nc3ccc(Cl)cc3)c3ccoc23)ccn1 [telatinib]"
reading = 0.06

[[record]]
compound = "CN1C(=O)N(c2cc(Cl)cc(Cl)c2)C(=O)[C@]12CN(c1ccc(C(=O)O)cn1)C[C@H]2c1ccc(C#N)cc1"
reading = 1.7

[[record]]
compound = "CS(=O)(=O)N(Cc1ccco1)C[C@@H](O)Cn1c2ccccc2c2ccccc21"
reading = 3.16

[[record]]
compound = "CCN(C(=O)c1c(O)c2c(Cl)cccc2n(C)c1=O)c1ccccc1 [laquinimod]"
reading = 1.55


Query block: Entry under review: CC1=C(C)C(=O)C(C(CCCCCC(=O)O)c2ccccc2)=C(C)C1=O (centres undefined) [seratrodast] . Reported inhibition of SARS-CoV-2 cytopathic effect?
Result block: -0.6

Query block: `COc1cc(N)c(Cl)cc1C(=O)OCCN1CCCCC1` ?
Result block: 2.34

Query block: NC/C(=C/F)CCc1ccc(F)cc1 [mofegiline] ?
Result block: 3.65

Taken from the supplement of paper PMC13380429.
